- Target System: human prostate specific membrane antigen (PSMA), full-length, on cells (human, UniProt Q04609 1-750)
- Sequence (Q04609 whole entry): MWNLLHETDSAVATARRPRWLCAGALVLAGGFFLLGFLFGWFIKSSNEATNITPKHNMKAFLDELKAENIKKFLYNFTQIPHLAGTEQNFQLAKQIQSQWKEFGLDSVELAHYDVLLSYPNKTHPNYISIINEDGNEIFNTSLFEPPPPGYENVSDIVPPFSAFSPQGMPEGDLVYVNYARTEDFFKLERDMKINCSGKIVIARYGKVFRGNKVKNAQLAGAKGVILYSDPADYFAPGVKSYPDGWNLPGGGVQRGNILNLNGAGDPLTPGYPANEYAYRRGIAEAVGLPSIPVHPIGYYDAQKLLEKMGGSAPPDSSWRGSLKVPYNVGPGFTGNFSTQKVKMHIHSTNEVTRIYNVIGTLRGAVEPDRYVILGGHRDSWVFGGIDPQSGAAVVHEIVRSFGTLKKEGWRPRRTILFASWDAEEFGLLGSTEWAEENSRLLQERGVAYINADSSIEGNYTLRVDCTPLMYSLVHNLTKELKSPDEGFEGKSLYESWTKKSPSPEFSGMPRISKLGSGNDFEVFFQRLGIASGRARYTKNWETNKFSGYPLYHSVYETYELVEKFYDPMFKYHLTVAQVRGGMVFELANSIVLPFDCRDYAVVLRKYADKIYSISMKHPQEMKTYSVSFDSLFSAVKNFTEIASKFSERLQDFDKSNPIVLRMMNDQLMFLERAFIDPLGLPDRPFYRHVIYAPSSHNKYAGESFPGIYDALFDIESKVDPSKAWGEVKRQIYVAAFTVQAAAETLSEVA
- Protocol: cell-based or functional assay
Examples of binders with documented IC50 Toxin (nM), DU145 PSMA cells, 48 h follow.
Give your result as the value with the unit written after it.

Req: Using the record for HiPEG A-1-B-His6 val-cit-PAB-MMAE (bispecific antibody, HiPEG val-cit-PAB-MMAE attached via the C-terminal His6-tag, DAR 1) EVQLVESGGGVVQPGRSLRLSCAASGFSFSGYGMHWVRQAPGKGLEWVAYISYDGSNKYYADSVKGRFTISRDNSKNTLYLQMNSLRAEDTAVYYCAKDPAWGLRLGESSSYDFDIWGQGTMVTVSSGGGGSGGGGSEVQLLESGGGLVQPGGSLRLSCAASGFSFSSYAMSWVRQAPGKGLEWVSSIGENDGTTDYADSVKGRFTISRDNSKSMLYLQMNSLRVEDTAVYYCVKDGVHWGQGTLVTVSS , report its IC50 Toxin (nM), DU145 PSMA cells, 48 h.
Resp: 0.67 nM

Req: Using the record for HiPEG C-2-C-His6 val-cit-PAB-MMAE (VHH, HiPEG val-cit-PAB-MMAE attached via the C-terminal His6-tag, DAR 1) EVQLVESGGGVVQPGRSLRLSCAASGFPLISYGMHWVRQAPGKGLEWVAFMTYDGSNRYYADSVKGRFTISRDNSKNTLYLQMNSLRDEDTALYYCARDRIVGGRVPDAFDIWGQGTMVTVSSGGGGSGGGGSGGGGSGGGGSGGGGSGGGGSEVQLVESGGGVVQPGRSLRLSCAASGFPLISYGMHWVRQAPGKGLEWVAFMTYDGSNRYYADSVKGRFTISRDNSKNTLYLQMNSLRDEDTALYYCARDRIVGGRVPDAFDIWGQGTMVTVSS , report its IC50 Toxin (nM), DU145 PSMA cells, 48 h.
Resp: 4.54 nM
